meta.source: PubChem BioAssay (NCI)

System: UO-31 renal
ASSAY_REMARKS: NCI tumour cell line growth inhibition, 48 h
ASSAY_READOUT: TGI (µM)

                                    compound  assay_readout  unit_descriptor  reported_relation  value
 0  O=C1NCN(c2ccccc2)C12CCN(CCCC(c1ccc(F)cc1)c1ccc(F)cc1)CC2            TGI               µM                  =   3.96
 1           N#C/C=c1/c2ccccc2n2nc3ccccc3c12            TGI               µM                  >    100
 2  CC(=O)OC12CC(C(F)(F)F)(C(F)(F)F)OC1(OC(C)=O)CC(C(F)(F)F)(C(F)(F)F)O2 (stereo unspecified)            TGI               µM                  =   13.3
 3       N/C(=N\NC(=O)c1nc2ccccc2s1)c1ccccn1            TGI               µM                  =   15.8
 4  COC1=CC(=O)c2c(cc(COP(N)(=O)N(CCCl)CCCl)n2C)C1=O (stereo unspecified)            TGI               µM                  =   2.65
 5       C=CCNc1nc(O)c(/C=C2\C=Nc3ncccc32)s1            TGI               µM                  >    100
 6  C=C1C(=O)[C@]23C[C@H]1C[C@@H](O)[C@H]2[C@]1(COC3=O)[C@@H](OC(C)=O)CC[C@@](C)(COC(C)=O)[C@H]1C=O            TGI               µM                  >     50
 7  O=C1/C(=C/c2ccc(F)c(F)c2)CN(C(=O)C(Cl)Cl)C/C1=C\c1ccc(F)c(F)c1            TGI               µM                  =  0.238
 8  CCOC(=O)C1(C#N)C2(C#N)C(N)=NC(ON=C(C)C)(ON=C(C)C)C12C#N (stereo unspecified)            TGI               µM                  >    100
 9          CCNc1cc2oc(=O)cc(C(F)(F)F)c2cc1C            TGI               µM                  >    100
10  CC(C(=O)NCCNC(=O)CCC(=O)N(C)O)C(=O)NCCNC(=O)CCC(=O)N(C)O            TGI               µM                  >    100
11                   Oc1cc(Cl)cc2cc(Cl)cnc12            TGI               µM                  =   20.5
12                  O=C(O)CNc1ccc(Cl)c(Cl)c1            TGI               µM                  =   71.1
13       O=C(/C=C/c1ccc2c(c1)OCO2)NCCc1ccco1            TGI               µM                  >    100
14  CC(C)NCC(O)c1ccc(O)c2ncccc12 (stereo unspecified)            TGI               µM                  >    100
15  Nc1ncnc2c1ncn2C1OC(CO)C(O)C1NS(=O)(=O)c1ccccc1 (stereo unspecified)            TGI               µM                  >    100
16     O=C1CCCCC/C1=C\c1cccc([N+](=O)[O-])c1            TGI               µM                  =   80.1
17   O=C1CSC(c2ccc(-c3nc4ccccc4[nH]3)cc2)=N1            TGI               µM                  >     50
18  COC12C=C/C(=C(/C(=O)OCCSc3ccnn3C)C(=O)CCCCCCCCC3(OC)C=C/C(=C(/C(=O)OCCSc4ccnn4C)C(=O)CCCCCCCC1)O3)O2            TGI               µM                  =   11.1
19  Cc1ccc2n(c1)cc(-c1ccc(/C=N/NC(=N)N/N=C/c3ccc(-c4cn5cc(C)ccc5[n+]4C)cc3)cc1)[n+]2C            TGI               µM                  =   44.1
20  COc1cccc(OC(=O)c2ccc(C(F)(F)F)nc2Nc2c(C)cccc2Cl)c1            TGI               µM                  =     32
